- Species on record: Homo sapiens
- PROTOCOL SUMMARY: Selectivity for human tryptase compared to human trypsin.
Decision: Selectivity ratio beneath 2 gives label 1; Selectivity ratio meeting or exceeding 2 gives label 0.

Below, 2 molecules whose answers are already recorded.
{"MOLECULE": "CC(C)(C)CC(=O)N1CCN(C(=O)N2C(=O)[C@H](CCCN=C(N)N)[C@H]2C(=O)O)CC1", "LABEL CLASS": "label 1"}
{"MOLECULE": "N=C(N)NCCC[C@H]1C(=O)N(C(=O)N2CCN(S(=O)(=O)c3ccccc3)CC2)[C@@H]1C(=O)O", "LABEL CLASS": "label 0"}

Turning now to a further molecule:
I'd appreciate it if you could check whether N=C(N)NCCC[C@H]1C(=O)N(S(=O)(=O)c2ccc(-c3ccccc3)cc2)[C@@H]1C(=O)O has Selectivity ratio smaller than 2.
label 1

---

- PROTOCOL SUMMARY: Aqueous Stability (half-life period) at pH 7 and 37 degrees
- Assay type: ADME
- EXPERIMENTAL SETUP: aqueous solution
REPORTED METRIC: half-life

Form field: reported half-life of CC(C)(C)OC(=O)N1CCN(C(=O)N2C(=O)[C@H](CCCN=C(N)N)[C@H]2C(N)=O)CC1 (single isomer, unassigned)
42 h

# input compound: N=C(N)NCCC[C@H]1C(=O)N(S(=O)(=O)c2ccc(-c3ccccc3)cc2)[C@@H]1C(=O)O ; wanted: its half-life
10.6 h

Endpoint output: half-life of CC(C)(C)NC(=O)N1CCN(C(=O)N2C(=O)[C@H](CCCN=C(N)N)[C@H]2C(=O)O)CC1 . Value?
> 48 h

---

- Organism: Homo sapiens
- PROTOCOL SUMMARY: Selectivity for human tryptase compared to human thrombin.
REPORTED METRIC: Selectivity ratio
The answer should be written as a number, with no unit following it.

See these solved cases before continuing.
{"MOLECULE": "N=C(N)NCCC[C@H]1C(=O)N(C(=O)Nc2ccccc2)[C@@H]1C(=O)O (stereo in doubt; 8a)", "Selectivity ratio": 1550}
{"MOLECULE": "CNC(=O)[C@@H]1[C@@H](CCCN=C(N)N)C(=O)N1C(=O)N1CCN(C(=O)OC(C)(C)C)CC1", "Selectivity ratio": 177}
{"MOLECULE": "N=C(N)NCCC[C@H]1C(=O)N(C(=O)c2ccccc2)[C@@H]1C(=O)O", "Selectivity ratio": 142}
{"MOLECULE": "CC(C)(C)OC(=O)N1CCN(C(=O)N2C(=O)[C@H](CCCN=C(N)N)[C@H]2C(=O)N2CCCCC2)CC1", "Selectivity ratio": 155}
{"MOLECULE": "N=C(N)NCCC[C@H]1C(=O)N(C(=O)NCc2ccccc2)[C@@H]1C(=O)O", "Selectivity ratio": 465}
{"MOLECULE": "N=C(N)NCCC[C@H]1C(=O)N(C(=O)c2ccc(-c3ccccc3)cc2)[C@@H]1C(=O)O", "Selectivity ratio": 65}

Let's switch to this molecule now.
Would you mind telling me what Selectivity ratio value was observed for N=C(N)NCCC[C@H]1C(=O)N(C(=O)N2CCN(C(=O)c3ccccc3)CC2)[C@@H]1C(=O)O ?
286

---

- TARGET ENTITY: Tryptase (Homo sapiens, UniProt Q9BZJ3+Q15661+Q9NRR2)
- PROTOCOL SUMMARY: In vitro inhibition of human tryptase.
REPORTED METRIC: log10 IC50 (log10 of the value in nM)
Values below are the log10 of the recorded IC50, with nM as the unit.

{"COMPOUND": "CC(C)(C)OC(=O)N1CCN(C(=O)N2C(=O)[C@H](CCCN=C(N)N)[C@H]2C(=O)N2CCCCC2)CC1", "REPORTED METRIC": "log10 IC50", "RECORDED MEASUREMENT": 0.48}
{"COMPOUND": "N=C(N)NCCC[C@H]1C(=O)N(C(=O)N2CCN(C(=O)c3ccccc3)CC2)[C@@H]1C(=O)O", "REPORTED METRIC": "log10 IC50", "RECORDED MEASUREMENT": 0.72}
{"COMPOUND": "N=C(N)NCCC[C@H]1C(=O)N(C(=O)Nc2ccccc2)[C@@H]1C(=O)O (relative stereo)", "REPORTED METRIC": "log10 IC50", "RECORDED MEASUREMENT": 3.00}

For the compound shown here, CNC(=O)[C@@H]1[C@@H](CCCN=C(N)N)C(=O)N1C(=O)N1CCN(C(=O)OC(C)(C)C)CC1 , give the reported log10 IC50.
-0.15

# get_value(readout='log10 IC50', item= CC(C)(C)C(=O)N1CCN(C(=O)N2C(=O)[C@H](CCCN=C(N)N)[C@H]2C(=O)O)CC1 )
0.85

Consider the compound shown here: CC(C)(C)CC(=O)N1CCN(C(=O)N2C(=O)[C@H](CCCN=C(N)N)[C@H]2C(=O)O)CC1 What is its recorded log10 IC50?
1.04

Entry under review: N=C(N)NCCC[C@H]1C(=O)N(C(=O)c2ccc(-c3ccccc3)cc2)[C@@H]1C(=O)O . Reported log10 IC50?
0.00

Fill in: log10 IC50 of CC(C)(C)OC(=O)N1CCN(C(=O)N2C(=O)[C@H](CCCN=C(N)N)[C@H]2C(=O)O)CC1 is ___
0.60

Given the entry N=C(N)NCCC[C@H]1C(=O)N(C(=O)N2CCN(S(=O)(=O)c3ccccc3)CC2)[C@@H]1C(=O)O , report its measured log10 IC50.
1.11

Look up log10 IC50: N=C(N)NCCC[C@H]1C(=O)N(C(=O)N2CCN(C(=O)OCCc3ccccc3)CC2)[C@@H]1C(=O)O
-0.15

---

- Species on record: Homo sapiens
- PROTOCOL SUMMARY: Selectivity for human tryptase compared to human plasmin.
Each entry belongs to exactly one class, chosen by where its Selectivity ratio falls: lower level: < 50; middle level: ≥ 50 and < 200; upper level: ≥ 200

These recorded examples may help you get a feel for the data.
{"COMPOUND": "CNC(=O)[C@@H]1[C@@H](CCCN=C(N)N)C(=O)N1C(=O)N1CCN(C(=O)OC(C)(C)C)CC1", "LABEL CLASS": "middle level"}
{"COMPOUND": "N=C(N)NCCC[C@H]1C(=O)N(C(=O)N2CCN(C(=O)OCCc3ccccc3)CC2)[C@@H]1C(=O)O", "LABEL CLASS": "upper level"}
{"COMPOUND": "N=C(N)NCCC[C@H]1C(=O)N(C(=O)NCc2ccccc2)[C@@H]1C(=O)O", "LABEL CLASS": "lower level"}
{"COMPOUND": "N=C(N)NCCC[C@H]1C(=O)N(C(=O)Nc2ccccc2)[C@@H]1C(=O)O (stereo in doubt; 8a)", "LABEL CLASS": "middle level"}
{"COMPOUND": "COC(=O)N1CCN(C(=O)N2C(=O)[C@H](CCCN=C(N)N)[C@H]2C(=O)O)CC1", "LABEL CLASS": "upper level"}

Turning now to a further record.
Bin? N=C(N)NCCC[C@H]1C(=O)N(C(=O)c2ccccc2)[C@@H]1C(=O)O
lower level

---

- TARGET ENTITY: Tryptase (Homo sapiens, UniProt Q9BZJ3+Q15661+Q9NRR2)
- PROTOCOL SUMMARY: In vitro inhibition of human tryptase.
The entries below come with measured IC50 values attached.
Provide the reading as a plain figure in nM.

Illustrative cases are given below, each with its answer.
{"COMPOUND": "CC(C)(C)OC(=O)N1CCN(C(=O)N2C(=O)[C@H](CCCN=C(N)N)[C@H]2C(N)=O)CC1 (single isomer, unassigned)", "IC50 [nM]": 0.4}
{"COMPOUND": "N=C(N)NCCC[C@H]1C(=O)N(C(=O)Nc2ccccc2)[C@@H]1C(=O)O (stereo in doubt)", "IC50 [nM]": 5380}

Turning now to a further record.
Form entry - test system: Tryptase (Homo sapiens, UniProt Q9BZJ3+Q15661+Q9NRR2); read-out: IC50; compound: N=C(N)NCCC[C@H]1C(=O)N(C(=O)c2ccccc2)[C@@H]1C(=O)O
9

---

- Organism: Homo sapiens
- PROTOCOL SUMMARY: Selectivity for human tryptase compared to human tissue plasminogen activator tissue.
Here the recorded Selectivity ratio is given for each entry.

Previously resolved entries follow.
{"COMPOUND": "N=C(N)NCCC[C@H]1C(=O)N(C(=O)NCc2ccccc2)[C@@H]1C(=O)O", "REPORTED METRIC": "Selectivity ratio", "RECORDED MEASUREMENT": 465}
{"COMPOUND": "CC(C)(C)CC(=O)N1CCN(C(=O)N2C(=O)[C@H](CCCN=C(N)N)[C@H]2C(=O)O)CC1", "REPORTED METRIC": "Selectivity ratio", "RECORDED MEASUREMENT": "> 1000"}
{"COMPOUND": "CNC(=O)[C@@H]1[C@@H](CCCN=C(N)N)C(=O)N1C(=O)N1CCN(C(=O)OC(C)(C)C)CC1", "REPORTED METRIC": "Selectivity ratio", "RECORDED MEASUREMENT": 6800}
{"COMPOUND": "N=C(N)NCCC[C@H]1C(=O)N(C(=O)Nc2ccccc2)[C@@H]1C(=O)O (stereo in doubt)", "REPORTED METRIC": "Selectivity ratio", "RECORDED MEASUREMENT": "> 6"}
{"COMPOUND": "CC(C)(C)OC(=O)N1CCN(C(=O)N2C(=O)[C@H](CCCN=C(N)N)[C@H]2C(=O)O)CC1", "REPORTED METRIC": "Selectivity ratio", "RECORDED MEASUREMENT": "> 8250"}
{"COMPOUND": "N=C(N)NCCC[C@H]1C(=O)N(C(=O)Nc2ccccc2)[C@@H]1C(=O)O (stereo in doubt; 8a)", "REPORTED METRIC": "Selectivity ratio", "RECORDED MEASUREMENT": 117}
{"COMPOUND": "N=C(N)NCCC[C@H]1C(=O)N(C(=O)N2CCN(C(=O)c3ccccc3)CC2)[C@@H]1C(=O)O", "REPORTED METRIC": "Selectivity ratio", "RECORDED MEASUREMENT": "> 2000"}

Proceeding to the next compound to report its Selectivity ratio.
May I ask what Selectivity ratio has been recorded for CC(C)(C)C(=O)N1CCN(C(=O)N2C(=O)[C@H](CCCN=C(N)N)[C@H]2C(=O)O)CC1 ?
> 1500
